Taken from paper PMC10415494.

Test system: PaTu 8902 (human pancreatic adenocarcinoma)
Assay: MTS antiproliferative assay
Settings: read-out: Cytotoxic activity IC50 PaTu 8902; MTS, 72 h of incubation
observation-type: IC50
Answer with the number, then the unit.

IN: For the molecule shown here, N.N.[Cl][Pt][Cl] [cisPt, cisplatin] , give the reported IC50.
OUT: 12.9 µM

====

Test system: Pseudomonas aeruginosa (P. aeruginosa) CCM 1959
Experiment: Antimicrobial activity, macrodilution method (growth by A590)
Format: cell-based
Settings: Bacteria; MHB, 37 °C; DMSO max 1.0 vol. %; read-out: IC50 P. aeruginosa
# reported IC50; entries follow

# example entries with known answers
{"columns": ["compound", "observation-type", "result"],
 "data": [
  ["O.O.O=C([O-])c1cc(Cl)cc(C(=O)[O-])n1.O=C([O-])c1cc(Cl)cc(C(=O)[O-])n1.[Ga+3].[Ga+3].[OH-].[OH-] [GaCldpic, [Ga(Cldpic)(H2O)(OH)]2]", "IC50", "50 µM"],
  ["O=[N+]([O-])[O-].O=[N+]([O-])[O-].O=[N+]([O-])[O-].[Ga+3] [Ga(NO3)3, gallium(III) nitrate]", "IC50", "> 500 µM"],
  ["O.O.O.O.O.O.O=C([O-])c1cc(O)cc(C(=O)[O-])n1.O=C([O-])c1cc(O)cc(C(=O)[O-])n1.[Ga+3].[Ga+3].[OH-].[OH-] [GaChel, [Ga(Chel)(H2O)(OH)]2·4H2O]", "IC50", "500 µM"]
]}

Next item in the queue.
IN: For the compound shown here, O.O=C([O-])c1ccccn1.O=C([O-])c1ccccn1.O=C([O-])c1ccccn1.[Ga+3] [GaPic, [Ga(Pic)3]·H2O] , give the reported IC50.
OUT: 50 µM

====

# reported pIC50; entries follow
System: Escherichia coli (E. coli) CCM 3988
Test: Antimicrobial activity, macrodilution method (growth by A590)
Type: cell-based
Details: Bacteria; MHB, 37 °C; DMSO max 1.0 vol. %; read-out: IC50 E. coli
pIC50: −log10 of the molar value.

{"columns": ["compound", "pIC50"],
 "data": [
  ["O.O.O.O.O.O.O=C([O-])c1cc(O)cc(C(=O)[O-])n1.O=C([O-])c1cc(O)cc(C(=O)[O-])n1.[Ga+3].[Ga+3].[OH-].[OH-] [GaChel, [Ga(Chel)(H2O)(OH)]2·4H2O]", "< 2.70"],
  ["O.O.O=C([O-])c1cc(Cl)cc(C(=O)[O-])n1.O=C([O-])c1cc(Cl)cc(C(=O)[O-])n1.[Ga+3].[Ga+3].[OH-].[OH-] [GaCldpic, [Ga(Cldpic)(H2O)(OH)]2]", "< 2.70"],
  ["O=[N+]([O-])[O-].O=[N+]([O-])[O-].O=[N+]([O-])[O-].[Ga+3] [Ga(NO3)3, gallium(III) nitrate]", "< 3.30"]
]}

IN: For the compound shown here, O.O=C([O-])c1cccc(C(=O)[O-])n1.O=C([O-])c1cccc(C(=O)[O-])n1.[Ga+3].[OH3+] [GaDpic, H3O[Ga(Dpic)2]·H2O] , give the reported pIC50.
OUT: < 2.70

IN: For the compound shown here, O.O=C([O-])c1ccccn1.O=C([O-])c1ccccn1.O=C([O-])c1ccccn1.[Ga+3] [GaPic, [Ga(Pic)3]·H2O] , give the reported pIC50.
OUT: < 2.70
